Give IC50, huKv1.3 current, QPatch patch clamp for every item shown.
- Assay System: human Kv1.3 (human) (UniProt P22001)
- Sequence (P22001 whole entry): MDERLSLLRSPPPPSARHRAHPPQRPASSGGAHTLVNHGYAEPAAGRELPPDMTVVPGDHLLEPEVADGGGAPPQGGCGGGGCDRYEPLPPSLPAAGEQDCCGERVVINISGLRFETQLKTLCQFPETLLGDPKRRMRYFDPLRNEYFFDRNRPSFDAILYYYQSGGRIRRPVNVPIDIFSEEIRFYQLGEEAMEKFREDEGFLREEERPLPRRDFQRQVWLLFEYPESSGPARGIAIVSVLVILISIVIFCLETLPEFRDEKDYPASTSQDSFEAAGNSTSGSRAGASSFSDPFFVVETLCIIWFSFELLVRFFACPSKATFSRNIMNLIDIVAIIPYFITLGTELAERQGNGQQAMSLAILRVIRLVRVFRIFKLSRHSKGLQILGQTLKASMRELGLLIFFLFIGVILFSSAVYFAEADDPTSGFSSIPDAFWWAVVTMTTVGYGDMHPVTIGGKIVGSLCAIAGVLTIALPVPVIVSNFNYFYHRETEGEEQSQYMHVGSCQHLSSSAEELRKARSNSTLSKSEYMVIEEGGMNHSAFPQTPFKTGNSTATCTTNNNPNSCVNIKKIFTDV
- Experiment: cell-based or functional assay

Q. Suppose we examine the binder KB_A12_ShK (antibody, V domains shown) VH: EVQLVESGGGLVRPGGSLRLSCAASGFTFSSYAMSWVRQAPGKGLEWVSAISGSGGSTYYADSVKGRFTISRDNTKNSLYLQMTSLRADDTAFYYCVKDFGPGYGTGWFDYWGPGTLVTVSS VL: NWYQQLPGKAPKLLIYAAGRRSCIDTIPKSRCTAFQCKHSMKYRLSFCRKTCGTCANSGVSDRFSAAKSGTSASLAINGLRSEDEADYYCAAWDDSLNGYVFGTGTKLTVLG ; what IC50, huKv1.3 current, QPatch patch clamp value has been reported?
A. 0.02 µM

Q. Suppose we examine the binder KB_A12 IgG1 (EETI-II fusion) (antibody, V domains shown) VH: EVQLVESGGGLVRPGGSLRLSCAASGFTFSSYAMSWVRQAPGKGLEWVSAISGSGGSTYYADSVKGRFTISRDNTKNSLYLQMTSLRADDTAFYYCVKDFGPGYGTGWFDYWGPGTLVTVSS VL: AVNWYQQLPGKAPKLLIYAAGRCPRILMRCKQDSDCLAGCVCGPNGFCGANSGVSDRFSAAKSGTSASLAINGLRSEDEADYYCAAWDDSLNGYVFGTGTKLTVLG ; what IC50, huKv1.3 current, QPatch patch clamp value has been reported?
A. > 10 µM

Q. Suppose we examine the binder KB_A12_KTX (antibody) VH: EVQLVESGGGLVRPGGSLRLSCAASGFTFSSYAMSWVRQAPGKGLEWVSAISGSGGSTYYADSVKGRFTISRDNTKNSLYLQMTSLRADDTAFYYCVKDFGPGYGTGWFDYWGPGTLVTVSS VL: QSVLTQPPSVSEAPRQRVTITCSGSSSNIGNNAVNWYQQLPGKAPKLLIYAAGRGVEINVKCSGSPQCLKPCKDAGMRFGKCMNRKCHCTPKANSGVSDRFSAAKSGTSASLAINGLRSEDEADYYCAAWDDSLNGYVFGTGTKLTVLGQP ; what IC50, huKv1.3 current, QPatch patch clamp value has been reported?
A. > 10 µM
